Attribution: ChEMBL document CHEMBL1140336

# protocolDetails: Inhibition of LPA-induced calcium transients in PC-3 cells
# Type: functional, cell-based, Homo sapiens
# reportedConditions: Homo sapiens, PC-3; read-out: IC50
Each entry below carries its reported pIC50.
Just the number, please; pIC50 means minus log10 of the concentration in mol/L.

Would you please look over these solved cases?
[
  {
    "compound": "CCCCCCCCCCP(=O)(O)O",
    "pIC50": 5.51
  },
  {
    "compound": "CCCCCCCCCCOP(O)(O)=S [THIOPHOSPHORIC ACID DECYL ESTER]",
    "pIC50": 5.91
  },
  {
    "compound": "C=CCCCCCCCCOP(=O)(O)O",
    "pIC50": 5.82
  },
  {
    "compound": "CCCCCCCCCCCCP(=O)(O)O",
    "pIC50": 5.58
  },
  {
    "compound": "CCCCCCCCCCCCOP(O)(O)=S [THIOPHOSPHORIC ACID DODECYL ESTER]",
    "pIC50": 5.55
  }
]

Endpoint output: pIC50 of C=CCCCCCCCCOP(O)(O)=S . Value?
6.00

Query CC/C=C/CCCCCCCCOP(O)(O)=S next
5.53

====

Here, each record is paired with measured pKi data.
# systemName: Lysophosphatidic acid receptor 3 (Homo sapiens, UniProt Q9UBY5)
# Sequence (Q9UBY5 whole entry): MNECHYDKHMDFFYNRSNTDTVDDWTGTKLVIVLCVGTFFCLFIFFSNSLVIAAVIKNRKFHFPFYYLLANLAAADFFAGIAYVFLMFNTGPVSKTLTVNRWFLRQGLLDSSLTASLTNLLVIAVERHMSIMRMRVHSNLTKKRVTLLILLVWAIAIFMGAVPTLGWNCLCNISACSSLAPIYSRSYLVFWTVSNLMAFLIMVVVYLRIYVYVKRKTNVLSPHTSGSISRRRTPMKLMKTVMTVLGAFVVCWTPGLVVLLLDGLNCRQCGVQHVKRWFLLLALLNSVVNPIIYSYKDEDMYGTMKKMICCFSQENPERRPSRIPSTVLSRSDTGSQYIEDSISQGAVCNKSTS
Schema: pKi number; meaning minus log10 of the concentration expressed in molar units.

Illustrative cases are given below, each with its answer.
[
  {
    "molecule": "CCCCCCCCCCP(=O)(O)O",
    "metric": "pKi",
    "quantitativeReadout": 6.17
  },
  {
    "molecule": "CCCCCCCCCCCCCCCC(=O)N[C@@H](Cc1ccc(OP(=O)(O)O)cc1)C(=O)O",
    "metric": "pKi",
    "quantitativeReadout": 5.63
  },
  {
    "molecule": "CCCCC/C=C/CCCOP(=O)(O)O",
    "metric": "pKi",
    "quantitativeReadout": 6.43
  },
  {
    "molecule": "CCCC/C=C/CCCCCCCCOP(O)(O)=S",
    "metric": "pKi",
    "quantitativeReadout": 7.85
  },
  {
    "molecule": "CCCCCCCCCCCCOP(=O)(O)O",
    "metric": "pKi",
    "quantitativeReadout": 7.21
  }
]

# lookup: pKi of CCCCCCCC(=O)OC[C@H](COP(=O)(O)OP(=O)(O)O)OC(=O)CCCCCCC
6.69

# iterate: CCCCCCCCCCCCP(=O)(O)O
6.52

Consider next the molecule CC/C=C/CCCCCCCCOP(=O)(O)O in the same way.
7.57

Now the same for CC/C=C/CCCCCCCCOP(O)(O)=S
7.85

Same read-out for Cc1noc(-c2ccc(CSCCC(=O)O)cc2)c1NC(=O)OC(C)c1ccccc1Cl (stereo not given) ?
6.83

====

# systemName: Lysophosphatidic acid receptor 1 (Homo sapiens)
# Sequence (Q92633 whole entry): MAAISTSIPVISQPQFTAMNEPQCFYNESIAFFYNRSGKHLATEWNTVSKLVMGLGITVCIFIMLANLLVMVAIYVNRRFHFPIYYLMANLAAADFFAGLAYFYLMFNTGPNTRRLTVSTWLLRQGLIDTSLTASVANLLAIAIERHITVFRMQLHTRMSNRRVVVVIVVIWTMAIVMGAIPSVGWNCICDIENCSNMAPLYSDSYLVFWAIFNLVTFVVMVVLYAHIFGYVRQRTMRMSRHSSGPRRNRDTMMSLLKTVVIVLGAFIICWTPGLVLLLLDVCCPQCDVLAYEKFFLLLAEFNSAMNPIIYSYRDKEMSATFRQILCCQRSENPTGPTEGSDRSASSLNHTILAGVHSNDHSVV
# protocolDetails: Inhibition of LPA-induced calcium transients in RH7777 rat hepatoma cells expressing LPA1 receptor; No effect
# Type: functional, cell-based
metric: IC50

[
  {
    "mol": "C=CCCCCCCCCOP(O)(O)=S",
    "systemName": "Lysophosphatidic acid receptor 1 (Homo sapiens)",
    "IC50": "Not Active"
  },
  {
    "mol": "CCCCCCCCCCCCCCCC(=O)N[C@@H](Cc1ccc(OP(=O)(O)O)cc1)C(=O)O",
    "systemName": "Lysophosphatidic acid receptor 1 (Homo sapiens)",
    "IC50": "Not Active"
  },
  {
    "mol": "CCCCCCCCCCCCCCOP(O)(O)=S",
    "systemName": "Lysophosphatidic acid receptor 1 (Homo sapiens)",
    "IC50": "Not Active"
  },
  {
    "mol": "CCCCCCCCCCCCP(=O)(O)O",
    "systemName": "Lysophosphatidic acid receptor 1 (Homo sapiens)",
    "IC50": "Not Active"
  },
  {
    "mol": "CC/C=C/CCCCCCCCOP(O)(O)=S",
    "systemName": "Lysophosphatidic acid receptor 1 (Homo sapiens)",
    "IC50": "Not Active"
  }
]

# IC50 lookup, item CCCC/C=C/CCCCCCCCOP(O)(O)=S
Not Active

Now consider CCCCCCCC/C=C/CCCCCCCCOP(=O)(O)O .
Not Active
